- MEASUREMENT DESCRIPTION: Multiple dose study: plasma pharmacokinetics and urinary excretion
- Format: in vivo, humans
- PARTICULARS: male, human, plasma, oral, 300 mg, eplerenone 300 mg Dose; Multiple Dose; read-out: T½ (converted)
QUANTITY: half-life

Entry COC(=O)C1CC2=CC(=O)CCC2(C)C23OC2CC2(C)C(CC[C@@]24CCC(=O)O4)C13 (stereo partly shown) [eplerenone] : reported half-life = ?
4.6 h

* * *

- MEASUREMENT DESCRIPTION: Single dose study: plasma pharmacokinetics of eplerenone, open lactone ring form, spironolactone
- PARTICULARS: male, human, plasma, po, 100 mg
QUANTITY: Tmax
Record the result as a number with its unit.

Look up Tmax for this compound: COC(=O)C1CC2=CC(=O)CCC2(C)C23OC2CC2(C)C(CC[C@@]24CCC(=O)O4)C13 (stereo partly shown)
1.5 h
